Molecular target: ZAP-70 (Homo sapiens, UniProt P43403)
Construct: endogenous in cells
Sequence (P43403 1-619): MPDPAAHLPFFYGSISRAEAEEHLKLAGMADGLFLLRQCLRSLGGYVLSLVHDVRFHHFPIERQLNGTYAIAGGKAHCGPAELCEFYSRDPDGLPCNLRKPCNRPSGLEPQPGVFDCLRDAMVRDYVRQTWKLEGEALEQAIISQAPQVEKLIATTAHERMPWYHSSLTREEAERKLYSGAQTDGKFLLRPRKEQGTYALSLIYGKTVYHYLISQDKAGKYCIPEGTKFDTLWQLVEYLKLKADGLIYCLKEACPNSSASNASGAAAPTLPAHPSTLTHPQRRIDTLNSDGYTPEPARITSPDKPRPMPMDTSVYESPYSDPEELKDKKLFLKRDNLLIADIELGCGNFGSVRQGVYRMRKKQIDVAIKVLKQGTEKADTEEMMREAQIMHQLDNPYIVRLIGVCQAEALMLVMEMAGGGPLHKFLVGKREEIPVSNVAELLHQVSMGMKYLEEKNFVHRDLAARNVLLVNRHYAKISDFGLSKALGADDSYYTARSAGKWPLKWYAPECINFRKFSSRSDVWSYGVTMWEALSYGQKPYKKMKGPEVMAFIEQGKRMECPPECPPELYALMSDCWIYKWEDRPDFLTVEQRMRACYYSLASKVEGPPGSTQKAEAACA
Experiment: ZAP-70 kinobeads assay
Conditions: competition with immobilized aminopyrido-pyrimidine ligand 24 in cell lysate; ZAP-70 detected by dot blot
pIC50: −log10 of the molar value. Where a name gives a salt, the structure may show the parent alone.
What pIC50 was measured for each of the following?

# annotated cases, reported pIC50 shown
{"compound": "CS(=O)(=O)Nc1ccccc1Nc1nc(Nc2cccc(Cl)c2)ncc1F", "property-name": "pIC50", "endpoint-value": "5.00 to 6.00"}
{"compound": "CCOC(=O)COc1ccc(Nc2ncc(F)c(Nc3ccccc3NS(C)(=O)=O)n2)cc1 [Example 144, hydrochloride]", "property-name": "pIC50", "endpoint-value": "5.00 to 6.00"}
{"compound": "COc1cc(Nc2ncc(F)c(Nc3cccc(NS(=O)(=O)CCN(C)C)c3)n2)cc(OC)c1OC", "property-name": "pIC50", "endpoint-value": "5.00 to 6.00"}

Now for another entry.
**Query** Which pIC50 is listed for `Cc1cccc(Nc2nc(Nc3cccc(OCCN4CCCCC4)c3)ncc2F)c1NS(C)(=O)=O` ?
**Result** > 7.00
